Value source: patent US20070003671A1

Listing: Titratable Acidity (%) (48 Hours) of selected molecules
assay: Calcium salts, physical/chemical attributes in orange juice, 450 mg/100 mL calcium load; format: physicochemical; conditions: 48 hours
Provide only the numeric value, understood in %.

The cases that follow already have their Titratable Acidity (%) (48 Hours) on record.
- molecule: "O.O=P([O-])(O)O.O=P([O-])(O)O.[Ca+2] [monocalcium phosphate monohydrate]"
  reading: 1.238
- molecule: "O=C([O-])CC(O)(CC(=O)[O-])C(=O)[O-].O=C([O-])CC(O)(CC(=O)[O-])C(=O)[O-].[Ca+2].[Ca+2].[Ca+2] [tri-calcium citrate]"
  reading: 0.630
- molecule: "O=C([O-])[O-].[Ca+2] [calcium carbonate]"
  reading: 0.099
- molecule: "O=P([O-])([O-])[O-].O=P([O-])([O-])[O-].[Ca+2].[Ca+2].[Ca+2] [tricalcium phosphate]"
  reading: 0.561
- molecule: "O=P([O-])([O-])[O-].O=P([O-])([O-])[O-].[Ca+2].[Ca+2].[Ca+2] [tricalcium phosphate (fine), tricalcium phosphate]"
  reading: 0.484

The recorded Titratable Acidity (%) (48 Hours) for entry O.O.O.O=C([O-])/C=C/C(=O)[O-].[Ca+2] [calcium fumarate trihydrate] equals 0.659

The recorded Titratable Acidity (%) (48 Hours) for entry N[C@@H](CCC(=O)[O-])C(=O)[O-].O.O.O.O.[Ca+2] [calcium L-glutamate tetrahydrate] equals 0.627

----------
Listing: Brix/Acid Ratio of selected compounds
assay: Calcium salts, physical/chemical attributes in orange juice, 350 mg/100 mL calcium load; format: physicochemical; details: unfortified juice 18.3

- compound: "O.O=P([O-])(O)O.O=P([O-])(O)O.[Ca+2] [monocalcium phosphate monohydrate]"
  reported_endpoint: "Brix/Acid Ratio"
  reading: 11.6
- compound: "O=P([O-])([O-])[O-].O=P([O-])([O-])[O-].[Ca+2].[Ca+2].[Ca+2] [tricalcium phosphate (fine), tricalcium phosphate]"
  reported_endpoint: "Brix/Acid Ratio"
  reading: 25.0
- compound: "O.O=C([O-])CCC(=O)[O-].[Ca+2] [calcium succinate monohydrate]"
  reported_endpoint: "Brix/Acid Ratio"
  reading: 20.9
- compound: "O=P([O-])([O-])O.[Ca+2] [dicalcium phosphate anhydrous]"
  reported_endpoint: "Brix/Acid Ratio"
  reading: 17.6
- compound: "O=C([O-])CC(O)(CC(=O)[O-])C(=O)[O-].O=C([O-])CC(O)(CC(=O)[O-])C(=O)[O-].[Ca+2].[Ca+2].[Ca+2] [tri-calcium citrate]"
  reported_endpoint: "Brix/Acid Ratio"
  reading: 19.3
- compound: "O.O.O.O=C([O-])/C=C/C(=O)[O-].[Ca+2] [calcium fumarate trihydrate]"
  reported_endpoint: "Brix/Acid Ratio"
  reading: 21.1
- compound: "O=C[O-].O=C[O-].[Ca+2] [calcium formate]"
  reported_endpoint: "Brix/Acid Ratio"
  reading: 20.1
- compound: "CC(O)C(=O)[O-].CC(O)C(=O)[O-].O.O.O.O.O.[Ca+2] (stereo not shown) [calcium lactate pentahydrate]"
  reported_endpoint: "Brix/Acid Ratio"
  reading: 19.1
- compound: "O=C([O-])CC(O)C(=O)[O-].[Ca+2] (stereo not shown) [calcium malate]"
  reported_endpoint: "Brix/Acid Ratio"
  reading: 19.7
- compound: "O.O.O=C([O-])[C@H](O)[C@@H](O)C(=O)[O-].[Ca+2] [calcium L-tartrate dihydrate]"
  reported_endpoint: "Brix/Acid Ratio"
  reading: 20.9

Next item in the queue.
The recorded Brix/Acid Ratio for entry O.O=P([O-])([O-])OCC(O)CO.[Ca+2] (stereo not shown) [calcium glycerophosphate monohydrate] equals 20.8
